Cited source for all entries: patent US11453647B2

Below, each entry is listed with its recorded IC50.
# MEASURED_ON: human A1 receptor (Homo sapiens, UniProt P30542)
# Sequence (P30542 1-326): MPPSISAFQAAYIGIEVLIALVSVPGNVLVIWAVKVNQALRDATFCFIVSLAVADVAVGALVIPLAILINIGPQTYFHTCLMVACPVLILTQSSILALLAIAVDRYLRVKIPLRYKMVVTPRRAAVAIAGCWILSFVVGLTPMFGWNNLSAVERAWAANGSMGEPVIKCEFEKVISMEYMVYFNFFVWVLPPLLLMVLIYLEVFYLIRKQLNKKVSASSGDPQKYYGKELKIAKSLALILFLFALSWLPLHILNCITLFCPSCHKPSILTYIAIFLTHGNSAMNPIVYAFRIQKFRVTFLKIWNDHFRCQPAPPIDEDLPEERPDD
# METHOD_NOTES: functional cAMP (HTRF) assay, recombinant CHO cells expressing human A1 receptor, forskolin, agonist CPA

Query: Any idea what its IC50 is? The molecule is COc1ccc(-c2ccccc2)c2nc(NC(=O)c3cnc4n3CCCC4)[nH]c12
Reply: < 1000 nM

Further cases:
Query: Reported IC50 for COc1ccc(-c2cnn(C3CCN(C(=O)OC(C)(C)C)CC3)c2)c2[nH]c(NC(=O)N3CCC(C)(O)CC3)nc12 : what is it?
Reply: > 1000 nM

Query: What does the data say about its IC50? Entry: COc1ccc(C2CCOCC2)c2nc(NC(=O)C3(C#N)CC3)[nH]c12
Reply: > 1000 nM

Query: // query IC50 value for entry COc1ccc(C2CCOCC2)c2nc(NC(=O)c3ccnc(N4CCC(C)(O)C4)c3)[nH]c12 (stereo not drawn)
Reply: > 1000 nM

Query: IC50 lookup needed for COc1ccc(-c2cnn(C3CCOC3)c2)c2nc(NC(=O)N3CCC(C)(O)CC3)[nH]c12 (stereo not drawn) , thanks.
Reply: > 1000 nM

----------
# MEASURED_ON: human A3 receptor (Homo sapiens, UniProt P0DMS8)
# Sequence (P0DMS8 whole entry): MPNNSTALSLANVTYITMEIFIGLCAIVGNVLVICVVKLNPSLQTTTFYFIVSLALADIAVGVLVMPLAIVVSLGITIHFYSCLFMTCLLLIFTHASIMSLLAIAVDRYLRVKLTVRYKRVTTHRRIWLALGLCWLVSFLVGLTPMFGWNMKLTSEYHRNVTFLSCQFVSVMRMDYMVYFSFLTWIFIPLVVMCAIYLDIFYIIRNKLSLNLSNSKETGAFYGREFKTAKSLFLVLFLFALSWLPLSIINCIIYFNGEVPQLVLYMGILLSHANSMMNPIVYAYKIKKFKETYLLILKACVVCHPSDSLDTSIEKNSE
# METHOD_NOTES: functional cAMP (HTRF) assay, recombinant CHO cells expressing human A3 receptor, forskolin, agonist IB-MECA
pIC50: −log10 of the molar value.
Each item that follows carries a reported pIC50.

Query: Requested read-out pIC50, target or system human A3 receptor (Homo sapiens, UniProt P0DMS8), entry COc1ccc(-c2cnn(C)c2)c2nc(NC(=O)N3CCC(Oc4ccccc4)CC3)[nH]c12
Reply: < 6.00

Query: Form entry - test system: human A3 receptor (Homo sapiens, UniProt P0DMS8); read-out: pIC50; compound: COc1ccc(-c2cnn(C)c2)c2[nH]c(NC(=O)c3cnn(C)c3)nc12
Reply: > 7.00

Query: Provide value of pIC50 for this record tested with human A3 receptor (Homo sapiens, UniProt P0DMS8): COc1ccc(C2CCOCC2)c2nc(NC(=O)c3ccnc(N4CCC5(CCOC5)C4)c3)[nH]c12 (centres unmarked)
Reply: < 6.00

Query: Give recorded pIC50 with human A3 receptor (Homo sapiens, UniProt P0DMS8) for the following compound: COc1ccc(-c2cccc(F)c2)c2[nH]c(NC(=O)c3c[nH]cn3)nc12
Reply: > 6.00

Query: Hi! What's the reported pIC50 for COc1ccc(-c2ccccc2)c2nc(NC(=O)N3CCC(C)(O)CC3)[nH]c12 on human A3 receptor (Homo sapiens, UniProt P0DMS8)?
Reply: > 6.00

Continuing:
Query: Give the reported pIC50 for COCc1ccc(C(=O)Nc2nc3c(-c4cnn(C)c4)ccc(OC)c3[nH]2)cc1 (system: human A3 receptor (Homo sapiens, UniProt P0DMS8)).
Reply: > 7.00

Query: Lab request: please report pIC50 under test system human A3 receptor (Homo sapiens, UniProt P0DMS8) for COCCn1cc(C(=O)Nc2nc3c(-c4cccc5c4CCN5)ccc(OC)c3[nH]2)cn1
Reply: > 6.00

Query: Hello, I am looking for reported pIC50 with human A3 receptor (Homo sapiens, UniProt P0DMS8) for COc1ccc(-c2ccccc2)c2nc(NC(=O)c3c[nH]c(C)n3)[nH]c12 . Could you help?
Reply: > 6.00

Query: What is its pIC50 for human A3 receptor (Homo sapiens, UniProt P0DMS8)? Entry: COc1ccc(-c2cnn(C)c2)c2nc(NC(=O)c3ccc(N4C(=O)CCC4=O)cc3)[nH]c12
Reply: < 6.00

Query: Query pIC50 on human A3 receptor (Homo sapiens, UniProt P0DMS8) for COCCn1cc(C(=O)Nc2nc3c(C4CCOCC4)ccc(OC)c3[nH]2)cn1
Reply: < 6.00

Query: Please tell me: pIC50 of COc1ccc(-c2cnn(C)c2)c2nc(NC(=O)N3CC[C@H](F)C3)[nH]c12 , system human A3 receptor (Homo sapiens, UniProt P0DMS8)?
Reply: < 6.00

Query: Query pIC50 on human A3 receptor (Homo sapiens, UniProt P0DMS8) for COc1ccc(-c2cccnc2)c2nc(NC(=O)C3CC3)[nH]c12
Reply: > 6.00

Query: # get_value(readout= pIC50, system= human A3 receptor (Homo sapiens, UniProt P0DMS8)) for COc1ccc(C2CCOCC2)c2nc(NC(=O)c3ccc4c(c3)CCO4)[nH]c12
Reply: > 6.00

Query: Query pIC50 on human A3 receptor (Homo sapiens, UniProt P0DMS8) for COc1ccc(-c2cccc(F)c2)c2nc(NC(=O)N3CCC(C)(O)CC3)[nH]c12
Reply: < 6.00

Query: API: value(readout=pIC50, system=human A3 receptor (Homo sapiens, UniProt P0DMS8)) for record COc1ccc(-c2cnn(C)c2)c2nc(NC(=O)c3ccnc(N4CCC(C)(O)C4)c3)[nH]c12 (centres unmarked)
Reply: > 6.00

Query: Lookup: pIC50 / human A3 receptor (Homo sapiens, UniProt P0DMS8) / COc1ccc(-c2ccncc2)c2nc(NC(=O)c3ccc(CN(C)C)cc3)[nH]c12
Reply: < 6.00

Query: Which pIC50 is reported with human A3 receptor (Homo sapiens, UniProt P0DMS8) for this entry: COc1ccc(N2CCOCC2)c2nc(NC(=O)c3cnn(C(CO)CCl)c3)[nH]c12 (centres unmarked) ?
Reply: < 6.00

----------
Entries and their measured pIC50 follow.
# MEASURED_ON: human A2A receptor (Homo sapiens)
# Sequence (P29274 whole entry): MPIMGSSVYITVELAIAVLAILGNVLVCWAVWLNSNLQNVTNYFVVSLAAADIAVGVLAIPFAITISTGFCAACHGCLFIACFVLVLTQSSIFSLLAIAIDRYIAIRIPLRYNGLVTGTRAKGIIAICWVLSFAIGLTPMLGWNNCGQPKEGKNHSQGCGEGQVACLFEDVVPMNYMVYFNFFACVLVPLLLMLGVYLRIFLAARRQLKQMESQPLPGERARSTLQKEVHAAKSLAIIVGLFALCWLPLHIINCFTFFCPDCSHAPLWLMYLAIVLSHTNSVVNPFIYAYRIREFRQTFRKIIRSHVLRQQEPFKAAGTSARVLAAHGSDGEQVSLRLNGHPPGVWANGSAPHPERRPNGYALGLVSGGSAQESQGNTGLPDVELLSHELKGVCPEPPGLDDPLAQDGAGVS
# METHOD_NOTES: functional cAMP (HTRF) assay, recombinant HEK293 cells expressing human A2A receptor, agonist NECA
pIC50: −log10 of the molar value.

Query: Consider the molecule shown here: COCc1ccc(C(=O)Nc2nc3c(-c4cnn(C)c4)ccc(OC)c3[nH]2)cc1 [compound 49] What is its recorded pIC50?
Reply: > 8.00

Query: Which value of pIC50 has been reported for COCCn1cc(C(=O)Nc2nc3c(-c4ccc5[nH]nc(C)c5c4)ccc(OC)c3[nH]2)cn1 [compound 282] in the records?
Reply: > 7.00

More entries:
Query: What pIC50 value was documented for this molecule, COc1ccc(-c2cccc3[nH]ncc23)c2nc(NC(=O)N3CCC(C)(O)CC3)[nH]c12 [compound 271] ?
Reply: > 7.00

Query: Which measured pIC50 value corresponds to COc1ccc(-c2ccccc2F)c2nc(NC(=O)c3cnn(C)c3)[nH]c12 [compound 243] ?
Reply: > 8.00

Query: I would be grateful if you could share the reported pIC50 for COc1ccc(-c2cccc(F)c2)c2nc(NC(=O)N3CCC(C)(O)CC3)[nH]c12 [compound 217] .
Reply: > 8.00

----------
# MEASURED_ON: human A2A receptor (Homo sapiens)
# Construct: expressed in transfected cells; host or cells: HEK293
# METHOD_NOTES: functional cAMP (HTRF) assay, recombinant HEK293 cells expressing human A2A receptor, agonist NECA
# Format: cell-based
Reported IC50 is given for each of the following molecules.

Query: Looking for the measured IC50 of C#CCC1(O)CCN(C(=O)Nc2nc3c(-c4cnn(C)c4)ccc(OC)c3[nH]2)CC1 [compound 92] , can you help?
Reply: < 10 nM

Query: Record request: IC50 value, item COc1ccc(-c2ccccc2)c2[nH]c(NC(=O)c3ccc(C(=O)N(C)CCN(C)C)cc3)nc12 [compound 296]
Reply: < 100 nM

Query: So what's the measured IC50 for this one? COCCn1cc(C(=O)Nc2nc3c(-c4cccc5[nH]ncc45)ccc(OC)c3[nH]2)cn1 [compound 279]
Reply: < 100 nM

Query: Data request, read-out IC50, for COc1ccc(-c2cnn(C)c2)c2nc(NC(=O)c3ccc(Cn4ccnc4)cc3)[nH]c12 [compound 71]
Reply: < 10 nM

Query: Could you share which IC50 value was measured for COc1ccc(-c2ccccc2)c2nc(NC(=O)c3ccnc(Br)c3)[nH]c12 [compound 3] ?
Reply: < 10 nM

***
Query: Which IC50 value belongs to COc1ccc(-c2ccccc2)c2nc(NC(=O)c3c[nH]c(C)n3)[nH]c12 [compound 255] ?
Reply: < 10 nM

Query: GET /values?readout=IC50&item= COc1ccc(C2CCOCC2)c2nc(NC(=O)c3ccnc(N4CC[C@]5(CCOC5)C4)c3)[nH]c12 [compound 154]
Reply: < 10 nM

Query: Please report the recorded IC50 for COc1ccc(-c2ccccc2)c2nc(NC(=O)c3ccnc(N4CCOCC4)c3)[nH]c12 [compound 7] .
Reply: < 10 nM
